Let's look at some molecules and their measured IC50.
- System: K562
- Protocol details: Antiproliferative activity against human K562 cells assessed as reduction in cell viability incubated for 72 hrs by Alamar blue assay
- Assay type: functional, cell-based
- Condition summary: K562, 72 h
Recorded endpoint: IC50 (nM)

O=C(CCCCCCC(=O)Nc1ccccc1)NO [VORINOSTAT] : 170
Cc1noc(C)c1-c1cc(NC(=O)CCCCCCC(=O)NO)cc(C(=O)c2ccccc2)c1 : 1860
Cc1sc2c(c1C)C(c1ccc(Cl)cc1)=N[C@@H](CC(=O)OC(C)(C)C)c1nnc(C)n1-2 (racemic) : 640
Cc1noc(C)c1-c1cc(NC(=O)CCCCCC(=O)NO)cc(C(=O)c2ccccc2)c1 : 2330
